Values compiled from paper PMC4971055.

Tested on: Rhopr-CRZR-β
Test: bioluminescence (calcium mobilizing) functional receptor assay, Rhopr-CRZR-β in CHOK1-aeq cells
Format: cell-based, Rhodnius prolixus
Conditions: Rhopr-CRZR-β transiently expressed in CHOK1-aeq cells; coelenterazine h luminescence over 15 s, 72 h post-transfection; triplicates, three replica plates averaged
testReadout: EC50 (nM)
Response body: numeric value in nM, unit text excluded.

Input line: Check the records and state EC50 for pQTFQYSRGWTNamide [Rhopr-CRZ, Rhodnius prolixus corazonin neuropeptide, p…amide]
Output line: 1
